# Tested on: CP315
# measurement.description: qHTS profiling for inhibitors of Plasmodium falciparum proliferation (AID 504749); note: nearly all actives have a fitted effect of over 60% in size
# run.parameters: P. falciparum in erythrocytes, SYBR Green DNA, 72 h; series mostly up to 28.7 µM
Records with an inconclusive call do not appear. Activity calls are given as the source filed them. Calls come from the whole dose curve; as a rule, active = well fitted inhibition curve with a large enough effect; inconclusive = small, poorly fitted or top-dose-only effect; inactive = flat fitted curve, though single readings scatter.
quantity.name: outcome

>>> df
                                    compound    result
 0           Cc1cccc(C)c1NC(=O)CC12CCCN1CCC2  inactive
 1             O=C(Cn1ccnc1[N+](=O)[O-])NCCO  inactive
 2     Cc1c(C(=O)NCCO)[n+](=O)c2ccccc2n1[O-]  inactive
 3        FC(F)(F)C(Cl)Br (stereo not drawn)  inactive
 4  Cc1c(C)c2c(c(C)c1OC(=O)c1cccnc1)CC[C@@](C)(CCC[C@H](C)CCC[C@H](C)CCCC(C)C)O2  inactive
 5  Cc1cc(-n2nc3ccc(Cl)cc3n2)c(O)c(C(C)(C)C)c1  inactive
 6          CCN(CC)S(=O)(=O)c1ccc(C(=O)O)cc1  inactive
 7                       CN1C(C)(C)CCCC1(C)C  inactive
 8                       NC(N)=NCCN1CCCCCCC1  inactive
 9  O=C(O)c1ccccc1C(=O)Nc1ccc(S(=O)(=O)Nc2nccs2)cc1  inactive
10       CC(N)CCCC(C)(C)O (stereo not drawn)  inactive
11                          CCOC(=O)c1cccnc1  inactive
12            CC1CCN(CCCC(=O)c2ccc(F)cc2)CC1  inactive
13                  O=C(O)c1cc(=O)c2ccccc2o1  inactive
14  O=C(c1ccccc1)C(O)c1ccccc1 (stereo not drawn)  inactive
15          Cc1c(NC(C)C)c(=O)n(-c2ccccc2)n1C  inactive
16                          OCc1ccc(Cl)cc1Cl  inactive
17       COc1cc(C(=O)NCCCCCC(=O)O)cc(OC)c1OC  inactive
18                   O=c1[nH]c(=O)c2ccccc2o1  inactive
19          Cc1c(Cn2ccnc2)c2ccccc2n1CCC(=O)O  inactive
20               Cc1c(I)c(=O)n(-c2ccccc2)n1C  inactive
21  CC(C)CCCC(C)CCCC(C)CCCCC(C)CCCC(C)CCCC(C)C (stereo not drawn)  inactive
22  O=C(O)Cc1ccc(CCNS(=O)(=O)c2ccc(Cl)cc2)cc1  inactive
23               OCC(O)CS (stereo not drawn)  inactive
24  CC(=O)SC[C@@H](Cc1ccccc1)C(=O)NCC(=O)OCc1ccccc1  inactive
25         COc1ccc(NS(=O)(=O)c2ccc(N)cc2)nn1  inactive
26  O=C(O)Cn1c(C(=O)Nc2nc(-c3ccccc3Cl)cs2)cc2ccccc21  inactive
27                          c1ccc2[nH]ccc2c1  inactive
